Data origin: the supplement of paper PMC11208160

# ASSAY PROTOCOL: recombinant UMI read abundance after kanamycin selection (control-corrected) (log10(CPM+1)); higher = more efficient recombination; extreme values may be limits of the assay; sequences stand for … in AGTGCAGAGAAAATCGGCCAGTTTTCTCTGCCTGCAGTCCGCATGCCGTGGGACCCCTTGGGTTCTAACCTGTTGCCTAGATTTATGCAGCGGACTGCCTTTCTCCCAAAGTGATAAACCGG…AGGTTGGTTTCACT; site = the 11-nt donor;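 note: IS621 bridge recombinase in Escherichia coli cells against a fixed T5 target plasmid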
Please respond with reported recombinant UMI read abundance (log10) for every item in the list.
Just the number, please, no unit after it.

Exercise: recombinant UMI read abundance (log10) for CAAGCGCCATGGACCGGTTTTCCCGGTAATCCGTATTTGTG (site CAAGCGCCTGA) ?
Solution: 0.706

Exercise: recombinant UMI read abundance (log10) for ACAGGGTCATGGACCGGTTTTCCCGGTAATCCGTATTTGCA (site ACAGGGTCTTG) ?
Solution: 3.2

Exercise: recombinant UMI read abundance (log10) for CGTGGACCATGGACCGGTTTTCCCGGTAATCCGTATTTGTT (site CGTGGAACTAA) ?
Solution: 0.00973

Exercise: recombinant UMI read abundance (log10) for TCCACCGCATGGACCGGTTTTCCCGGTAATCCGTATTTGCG (site TCCCCCGCTCG) ?
Solution: 0.1

Exercise: recombinant UMI read abundance (log10) for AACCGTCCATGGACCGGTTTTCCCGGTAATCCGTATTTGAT (site AACCGGCCTAT) ?
Solution: 0.00769

Exercise: recombinant UMI read abundance (log10) for GACCTCACATGGACCGGTTTTCCCGGTAATCCGTATTTGAT (site GAACTCACTAT) ?
Solution: 0.0127

Exercise: recombinant UMI read abundance (log10) for ACATCCACATGGACCGGTTTTCCCGGTAATCCGTATTTGTG (site ACATCAACTCA) ?
Solution: 0.0218

Exercise: recombinant UMI read abundance (log10) for ACTAGTACATGGACCGGTTTTCCCGGTAATCCGTATTTGAG (site ACTAGAACTCT) ?
Solution: 0.692

Exercise: recombinant UMI read abundance (log10) for TGCTTGGCATGGACCGGTTTTCCCGGTAATCCGTATTTGGT (site TGCTGGGCTAC) ?
Solution: 0.155

Exercise: recombinant UMI read abundance (log10) for AGTAGTGCATGGACCGGTTTTCCCGGTAATCCGTATTTGGT (site ATTAGTGCTAC) ?
Solution: 0.00696

Exercise: recombinant UMI read abundance (log10) for ACAAGGCCATGGACCGGTTTTCCCGGTAATCCGTATTTGAC (site AAAAGGCCTGT) ?
Solution: 0

Exercise: recombinant UMI read abundance (log10) for CTCCGTACATGGACCGGTTTTCCCGGTAATCCGTATTTGCT (site CGCCGTACTAG) ?
Solution: 0.00286

Exercise: recombinant UMI read abundance (log10) for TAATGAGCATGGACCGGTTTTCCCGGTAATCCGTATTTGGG (site CAATGAGCTCC) ?
Solution: 0.0721

Exercise: recombinant UMI read abundance (log10) for ACTATAACATGGACCGGTTTTCCCGGTAATCCGTATTTGAG (site ACTAGAACTCT) ?
Solution: 0.395

Exercise: recombinant UMI read abundance (log10) for ACACTAGCATGGACCGGTTTTCCCGGTAATCCGTATTTGTG (site ACACTAGCTCA) ?
Solution: 1.62

Exercise: recombinant UMI read abundance (log10) for TATTTGACATGGACCGGTTTTCCCGGTAATCCGTATTTGCT (site TACTTGACTAG) ?
Solution: 0.882

Exercise: recombinant UMI read abundance (log10) for TATATGGCATGGACCGGTTTTCCCGGTAATCCGTATTTGTG (site TATGTGGCTCA) ?
Solution: 0.00727

Exercise: recombinant UMI read abundance (log10) for ACAACTACATGGACCGGTTTTCCCGGTAATCCGTATTTGTG (site ACACCTACTCA) ?
Solution: 0.0441
